recombinant UMI read abundance (log10) for assorted sequences
# EXPERIMENT SUMMARY: recombinant UMI read abundance after kanamycin selection (control-corrected) (log10(CPM+1)); higher = more efficient recombination; extreme values may be limits of the assay; sequences stand for … in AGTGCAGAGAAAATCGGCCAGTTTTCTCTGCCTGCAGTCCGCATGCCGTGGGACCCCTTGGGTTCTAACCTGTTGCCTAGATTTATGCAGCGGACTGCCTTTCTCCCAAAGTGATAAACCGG…AGGTTGGTTTCACT; site = the 11-nt donor;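 further: IS621 bridge recombinase in Escherichia coli cells against a fixed T5 target plasmid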
Response field accepts a number only; no unit should be typed.

Some sequences with recorded recombinant UMI read abundance (log10):
SEQ	recombinant UMI read abundance (log10)
GATAATCCATGGACCGGTTTTCCCGGTAATCCGTATTTGCT (site GATAATCCTAG)	0
AAGCACACATGGACCGGTTTTCCCGGTAATCCGTATTTGGG (site AAGCACCCTCC)	0.0138
ACCAGAACATGGACCGGTTTTCCCGGTAATCCGTATTTGAG (site ACGAGAACTCT)	0
ACTTACTCATGGACCGGTTTTCCCGGTAATCCGTATTTGAC (site ACTTACTCTGT)	2.81

Reported recombinant UMI read abundance (log10) of TGCCATTCATGGACCGGTTTTCCCGGTAATCCGTATTTGAT (site TGCCATTCTAT) : 0
